Experimental System: Salicylate synthase (Mycobacterium tuberculosis (strain CDC 1551 / Oshkosh))
Experiment Notes: inhibitors of M. tuberculosis MbtI – biochemical, fluorescence intensity, primary screen (AID 493033)
Condition Set: purified MbtI enzyme, fluorescence intensity read-out, concentration not given here
Hit rate of the full screen: of about 100,000 compounds, about 930 (0.93%) were called active. Cut-off read from the data, not from the text of the source: active = inhibition mostly above about 56% (no sharp cut-off); inactive = mostly below about 77%. What follows is part of a selection rich in actives, with near analogues and random picks from the rest.
Possible outcomes: Y = active, N = inactive

Compound: N#C/C(=N\Nc1ccccc1)C(=O)C1CC1
Answer Label: Y

Compound: COc1ccc(C#N)cc1
Answer Label: N

Compound: N=C1N=C(N)C(Cc2ccccc2)S1 (stereo unspecified)
Answer Label: Y

Compound: O=C(CSc1ccc(Br)cc1)c1ccco1
Answer Label: Y

Compound: COc1ccc(-c2nc3sc(-c4ccc(OC)cc4)nc3s2)cc1
Answer Label: Y

Compound: COc1ccccc1Nc1nc2c(S(=O)(=O)c3c(C)cc(C)cc3C)nnn2c2ccccc12
Answer Label: N

Values compiled from PubChem BioAssay AID493033.
